Molecular target: UniProt:P18841
Sequence (P18841 whole entry): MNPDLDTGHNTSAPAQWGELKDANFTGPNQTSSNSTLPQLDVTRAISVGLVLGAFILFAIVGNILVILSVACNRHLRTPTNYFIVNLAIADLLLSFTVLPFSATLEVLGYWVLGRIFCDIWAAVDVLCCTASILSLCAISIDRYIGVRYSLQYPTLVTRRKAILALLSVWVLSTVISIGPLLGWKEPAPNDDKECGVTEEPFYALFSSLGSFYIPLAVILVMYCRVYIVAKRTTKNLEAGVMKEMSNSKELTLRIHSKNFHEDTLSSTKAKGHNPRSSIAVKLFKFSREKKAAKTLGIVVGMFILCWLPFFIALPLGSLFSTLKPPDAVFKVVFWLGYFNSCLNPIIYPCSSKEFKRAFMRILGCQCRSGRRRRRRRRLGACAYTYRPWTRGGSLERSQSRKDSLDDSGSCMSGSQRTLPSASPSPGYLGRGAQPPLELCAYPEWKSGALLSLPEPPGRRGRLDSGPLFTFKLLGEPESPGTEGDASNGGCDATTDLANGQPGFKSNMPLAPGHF
Assay: Binding affinity towards hamster cloned Alpha-1B adrenergic receptor; value ranges from (6.2 -7.7)
Parameters: species or system Cricetulus griseus
Assay endpoint: Ki (µM)
Hi! Could you send only the number? It should be in µM, unit omitted.

Using the record for COc1ccc(OC)c(C(O)CN)c1 (stereo unspecified) [DESGLYMIDODRINE] , state its measured Ki.
6.9

====

Target: Alpha-1B adrenergic receptor (Rattus norvegicus)
Sequence (P15823 whole entry): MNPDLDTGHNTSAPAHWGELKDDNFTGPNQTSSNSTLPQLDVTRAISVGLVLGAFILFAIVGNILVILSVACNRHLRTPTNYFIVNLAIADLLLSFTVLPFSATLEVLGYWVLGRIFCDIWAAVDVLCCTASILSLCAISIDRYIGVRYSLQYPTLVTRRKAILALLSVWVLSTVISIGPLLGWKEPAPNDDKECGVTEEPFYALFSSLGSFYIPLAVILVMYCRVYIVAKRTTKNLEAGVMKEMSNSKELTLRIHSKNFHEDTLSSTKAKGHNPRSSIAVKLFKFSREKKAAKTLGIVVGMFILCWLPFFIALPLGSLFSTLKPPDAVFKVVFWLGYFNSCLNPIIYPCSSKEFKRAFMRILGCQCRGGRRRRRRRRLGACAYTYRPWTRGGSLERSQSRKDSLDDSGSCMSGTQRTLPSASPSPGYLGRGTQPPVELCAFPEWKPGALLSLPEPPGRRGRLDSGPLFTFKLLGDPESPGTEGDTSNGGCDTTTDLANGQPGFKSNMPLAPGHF
Assay: Effective concentration in vitro against rat spleen Alpha-1B adrenergic receptor indicates EC50 < 15% at a concentration of 10 uM
Assay endpoint: EC50 (µM)
Hi! Could you send only the number? It should be in µM, unit omitted.

[[record]]
compound = "C[C@H](N)[C@H](O)c1ccccc1"
assay_endpoint = "EC50"
readout_units = "µM"
reported_value = 280


Now let's try a different one.
Using the record for COc1ccc(OC)c(C(O)CN)c1 (configuration not stated) , state its measured EC50.
85

====

Target: Alpha-1D adrenergic receptor (Rattus norvegicus, UniProt P23944)
Sequence (P23944 whole entry): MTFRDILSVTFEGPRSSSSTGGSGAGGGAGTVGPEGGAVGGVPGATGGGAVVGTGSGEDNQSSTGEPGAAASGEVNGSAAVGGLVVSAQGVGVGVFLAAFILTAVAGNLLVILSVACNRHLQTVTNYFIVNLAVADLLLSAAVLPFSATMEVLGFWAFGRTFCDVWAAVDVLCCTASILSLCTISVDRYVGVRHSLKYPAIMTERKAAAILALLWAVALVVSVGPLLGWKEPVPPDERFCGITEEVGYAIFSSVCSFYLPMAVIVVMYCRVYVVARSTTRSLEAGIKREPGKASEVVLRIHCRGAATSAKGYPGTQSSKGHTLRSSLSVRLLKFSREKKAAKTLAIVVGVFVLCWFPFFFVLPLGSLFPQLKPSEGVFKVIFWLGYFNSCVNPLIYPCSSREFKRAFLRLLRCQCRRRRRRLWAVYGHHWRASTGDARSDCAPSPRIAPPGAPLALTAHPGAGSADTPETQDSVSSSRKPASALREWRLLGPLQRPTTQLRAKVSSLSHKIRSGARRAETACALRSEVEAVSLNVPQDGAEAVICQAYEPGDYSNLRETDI
Experiment: Binding affinity towards rat cloned Alpha-1D adrenergic receptor; value ranges from (1.3 -1.6)
Assay endpoint: pKi
Give only the number. pKi is defined as minus log10 of concentration in molar units.

Using the record for CS(=O)(=O)Nc1c(O)ccc2c1CCCC2C1=NCCN1 (stereo unspecified) , state its measured pKi.
5.82

====

Each item that follows carries a reported EC50.
Target: Alpha-1D adrenergic receptor (Rattus norvegicus)
Experiment: Effective concentration in vitro against rat aorta Alpha-1D adrenergic receptor;* indicates EC50 < 15% at a concentration of 10 uM
Hi! Could you send only the number? It should be in µM, unit omitted.

[[record]]
compound = "COc1ccc(OC)c(C(O)CN)c1 (configuration not stated)"
readout_units = "µM"
reported_value = 1.9


Now let's try a different one.
Using the record for C[C@H](N)[C@H](O)c1ccccc1 , state its measured EC50.
58

====

Biological target: Alpha-1D adrenergic receptor (Rattus norvegicus, UniProt P23944)
Assay: Binding affinity towards rat cloned Alpha-1D adrenergic receptor; value ranges from (1.5 - 1.9)
Assay endpoint: Ki (nM)
Hi! Could you send only the number? It should be in nM, unit omitted.

Write down measured Ki (Alpha-1D adrenergic receptor (Rattus norvegicus, UniProt P23944)) for this compound. COc1ccc(OC)c(C(O)CN)c1 (stereo unspecified)
1700

====

Molecular target: UniProt:P43140
Sequence (P43140 whole entry): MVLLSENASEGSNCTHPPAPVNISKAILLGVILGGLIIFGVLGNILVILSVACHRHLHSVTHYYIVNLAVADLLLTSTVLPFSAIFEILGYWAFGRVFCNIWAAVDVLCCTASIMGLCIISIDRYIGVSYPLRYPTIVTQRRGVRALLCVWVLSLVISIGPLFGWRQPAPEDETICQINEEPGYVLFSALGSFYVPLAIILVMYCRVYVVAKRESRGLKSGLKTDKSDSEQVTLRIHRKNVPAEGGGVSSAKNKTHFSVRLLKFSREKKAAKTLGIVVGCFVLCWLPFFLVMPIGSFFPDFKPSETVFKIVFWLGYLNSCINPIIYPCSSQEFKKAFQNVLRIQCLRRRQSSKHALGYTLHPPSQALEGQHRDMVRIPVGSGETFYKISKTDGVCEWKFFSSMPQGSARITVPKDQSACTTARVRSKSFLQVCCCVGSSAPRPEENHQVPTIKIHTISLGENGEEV
Assay: Binding affinity towards rat submaxillary gland Alpha-1 adrenergic receptor; value ranges from (0.12 - 0.15)
Assay endpoint: Ki (nM)
Hi! Could you send only the number? It should be in nM, unit omitted.

Write down measured Ki (UniProt:P43140) for this compound. CCS(=O)(=O)Nc1cccc(Cc2c[nH]cn2)c1
140

====

Molecular target: Alpha-1A adrenergic receptor (Rattus norvegicus)
Experiment: Binding affinity towards rat submaxillary gland Alpha-1 adrenergic receptor; value ranges from (6.2 - 15)
Assay endpoint: pKi
Give only the number. pKi is defined as minus log10 of concentration in molar units.

Using the record for C[C@H](N)[C@H](O)c1ccccc1 , state its measured pKi.
5.01

====

Tested on: Canis familiaris
Test: Dose corresponding to a 5 mmHg increase in Intraurethral pressure (IUP) was determined in vivo in isoflurane anesthetized female beagles
Format: functional, Canis lupus familiaris, Beagle
Each item that follows carries a reported ED5.
Hi! Could you send only the number? It should be in nM/kg, unit omitted.

[[record]]
compound = "CCS(=O)(=O)Nc1cccc(Cc2c[nH]cn2)c1"
readout_units = "nM/kg"
reported_value = 12

[[record]]
compound = "COc1ccc(OC)c(C(O)CN)c1 (centres undefined) [DESGLYMIDODRINE]"
readout_units = "nM/kg"
reported_value = 205

[[record]]
compound = "C[C@H](N)[C@H](O)c1ccccc1 [(1R,2S)-PHENYLPROPANOLAMINE]"
readout_units = "nM/kg"
reported_value = 1100


Now let's try a different one.
Using the record for CS(=O)(=O)Nc1c(O)ccc2c1CCCC2C1=NCCN1 (centres undefined) , state its measured ED5.
0.16
